- Tested on: U-251
- protocol details: NCI tumour cell line growth inhibition, 48 h
Calls of active or inactive are those of the source. Cut-off read from the data, not from the text of the source: active = GI50 up to about 1.1 µM and inactive = higher.
Outcomes: active, inactive

>>> qualitative_label("CCOC(=O)C1=c2[nH]c3cccc4cccc(c43)n2C=C(C(C)=O)C1CC(C)=O (stereo unspecified)")
"inactive"
>>> qualitative_label("CC1=NN(C(=O)CC(=O)N(C(=O)c2ccccc2)c2ccc(Cl)cc2)C(=O)C1/N=N/c1ccc([N+](=O)[O-])cc1 (stereo unspecified)")
"inactive"
>>> qualitative_label("Cc1nc2c(=O)n3c4c(cccc4c2o1)CCC3")
"inactive"
>>> qualitative_label("Cc1nnc(Nc2ccc(Cl)cc2)o1")
"inactive"
>>> qualitative_label("CC1[C@@H]2CC=C3C4CCC5Cc6nc7c(nc6C[C@@]5(C)C4CC(=O)[C@]32CO[C@@]1(O)C(O)CC(C)(C)O)CC1CCC2C3=C[C@H]4O[C@@]5(O[C@@](C)(CO)C[C@@H]5O)C(C)[C@@]4(O)[C@]3(C)[C@@H](O)CC2[C@]1(C)C7 (stereo partly specified)")
"active"
>>> qualitative_label("O=C(N/N=C/C=C/c1ccccc1)[C@H](O)[C@@H](O)C(=O)N/N=C/C=C/c1ccccc1")
"inactive"

====

The compounds listed here are annotated with their GI50.
- Tested on: SF-295
- protocol details: NCI tumour cell line growth inhibition, 48 h
Calls of active or inactive are those of the source. Cut-off read from the data, not from the text of the source: active = GI50 up to about 1.1 µM and inactive = higher.
measure: GI50

>>> result("CCOC(=O)NC(=O)c1cn(CCN2CCN(C(=O)NCCCCCCNC(=O)N3CCN(CCn4cc(C(=O)NC(=O)OCC)c(=O)[nH]c4=O)CC3)CC2)c(=O)[nH]c1=O")
"> 100 µM (inactive)"
>>> result("CCOC1=NC(O)c2cccn2-c2sccc21 (stereo not given)")
"> 100 µM (inactive)"
>>> result("COc1ccc(C2S/C(=C\\c3cc(OC)c(OC)c(OC)c3)C(=O)N2NC(=O)Cc2ccccc2)cc1 (stereo not given)")
"> 100 µM (inactive)"
>>> result("Nc1c2c(nc3ccccc13)-c1ccccc1CCC2")
"5.98 µM (inactive)"
>>> result("CN(C)c1ccc(/C=C2/SC(=S)NC2=O)cc1")
"> 100 µM (inactive)"
>>> result("O=C1CC(=O)NC(NN2C(=O)CSC2C(=O)c2ccco2)=N1 (stereo not given)")
"78.7 µM (inactive)"
>>> result("N=c1c2c(=S)n(-c3ccccc3)c(=S)n(-c3ccccc3)c2nc(SCCCN2CCCCC2)n1-c1ccccc1")
"4.91 µM (inactive)"
>>> result("Cc1cc(S(=O)(=O)/N=C2\\NCCN2Cc2ccccc2)c(S)cc1Cl")
"81.7 µM (inactive)"
>>> result("COc1cc(/C=N/n2c(C)n[nH]c2=O)cc(OC)c1OC")
"> 100 µM (inactive)"
>>> result("C=C(CCC(C(=O)O)C1CCC2(C)C3=C(CCC12C)C1(C)CCC(O)C(C)(C)C1CC3)C(C)C (stereo not given)")
"38.5 µM (inactive)"

====

- System: ACHN
- protocol details: NCI tumour cell line growth inhibition, 48 h
Active and inactive are the calls of the source. No stated cut-off is given here; in the data, active = GI50 up to about 1.1 µM and inactive = higher.
measure: GI50

>>> result("Oc1c2cccc1Cc1cccc3c1OCCOCCOCCOCCOc1c(cccc1Cc1cccc(c1O)C3)C2")
"> 100 µM (inactive)"
>>> result("COC(=O)c1cc(C)ccc1C1CN=NC12Cc1c(C)cc(C)cc1C2=O (stereo not drawn)")
"40.5 µM (inactive)"
>>> result("CCN(CC)CC(C(=O)Nc1c(C)cccc1C)/C(C)=N/NC(N)=S (stereo not drawn)")
"> 100 µM (inactive)"
